system: MLCK; construct: gene MYLK3; settings: concentration: 1 μM, replicates: in singlicate; n = 1;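 further: KINOMEscan kinase panel screen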
MEASUREMENT KIND: %Inh (%)
Just the number in %, nothing appended.

Study these solved cases before continuing.
MOLECULE: Cc1nnc(-c2ccc3ncc(-c4ccc(S(C)=O)cc4)n3c2)o1 (stereo not drawn)
SYSTEM UNDER TEST: MLCK
%Inh / %: 0

MOLECULE: NCC(NC(=O)c1cc(-c2cn[nH]c2)c(-c2ccnc3[nH]ccc23)s1)c1ccccc1.O=C(O)C(F)(F)F.O=C(O)C(F)(F)F (stereo not drawn)
SYSTEM UNDER TEST: MLCK
%Inh / %: 96.3

MOLECULE: O=C(c1ccc(-c2cc(-c3c[nH]nc3-c3ccccn3)ccn2)cc1)N1CCOCC1
SYSTEM UNDER TEST: MLCK
%Inh / %: 0

MOLECULE: O=C(Nc1cccc(-c2nn3ncccc3c2-c2ccnc(Nc3cccc(C(F)(F)F)c3)n2)c1)c1c(F)cccc1F
SYSTEM UNDER TEST: MLCK
%Inh / %: 11

MOLECULE: Nc1nccc(-c2c(-c3ccc(F)cc3)ncn2C2CCN(CC(F)(F)F)CC2)n1
SYSTEM UNDER TEST: MLCK
%Inh / %: 0

MOLECULE: CN(C(=O)c1ccc(-c2cc(-c3c[nH]nc3-c3ccccn3)ccn2)cc1)C1CCOCC1
SYSTEM UNDER TEST: MLCK
%Inh / %: 0

MOLECULE: CCc1ccnc(/C=C/c2n[nH]c3cc(Sc4ccccc4C(=O)NC)ccc23)c1
SYSTEM UNDER TEST: MLCK
%Inh / %: 1

MOLECULE: CNc1ncnc2[nH]ncc12
SYSTEM UNDER TEST: MLCK
%Inh / %: 1

# evaluate next
Give %Inh for O=C(NCCNc1ccnc(Nc2ccc(F)cc2)n1)c1cc2ccccc2s1 tested on MLCK.
0

====

Quick list: %Inh per entry.
test system: PLK1; conditions: concentration: 1 μM, replicates: in singlicate; n = 1
Just the number in %, nothing appended.

Study these solved cases before continuing.
COMPOUND: CC(=O)Nc1ccc(COc2ccc(Nc3ccnc4cc(-c5ccccn5)ccc34)cc2)cc1.Cl
UNITS SYMBOL: %
%Inh: 0
//
COMPOUND: N#Cc1c(N2CCOCC2)sc(-c2ccn[nH]2)c1-c1ccc(Cl)cc1
UNITS SYMBOL: %
%Inh: 24

Supply reported %Inh belonging to this compound: O=C1Cc2cc(Nc3nc(NCc4cccc(S(=O)(=O)C(F)(F)F)c4)ncc3C(F)(F)F)ccc2N1
0

Supply reported %Inh belonging to this compound: CSc1ccc(-c2cc3ncnc(SCC(=O)O)c3s2)cc1
0

Supply reported %Inh belonging to this compound: O=C(NCCCN1CCOCC1)c1cccc(Nc2nccc(Nc3ccc(Oc4ccccc4)cc3)n2)c1
0

Supply reported %Inh belonging to this compound: O=C(c1ccc(-c2cc(-c3c[nH]nc3-c3ccccn3)ccn2)cc1)N1CCOCC1
0

Supply reported %Inh belonging to this compound: Fc1ccc(-c2ncn(CCCN3CCOCC3)c2-c2ccccn2)cc1
12

Supply reported %Inh belonging to this compound: Cc1nnc(-c2ccc3ncc(-c4ccc(S(C)=O)cc4)n3c2)o1 (stereo not drawn)
0

Supply reported %Inh belonging to this compound: NS(=O)(=O)c1cccc(-c2ccc3ncc(N4CCOCC4)nc3c2)c1
0

Supply reported %Inh belonging to this compound: Nc1nccc(-c2c(-c3ccc(F)cc3)ncn2C2CCN(CC(F)(F)F)CC2)n1
0

Supply reported %Inh belonging to this compound: COC(=O)Nc1nc2cc(Oc3ccc(NC(=O)Nc4cc(F)ccc4F)cc3)ccc2[nH]1.Cl
0

Supply reported %Inh belonging to this compound: CNc1ncnc2[nH]ncc12
31
